Hi there, I'd appreciate the recorded AUC(0-t) at 24 h for every entry that follows.
- assay: AUC (0 to t) in Sprague-Dawley rat at 5 to 10 mg/kg, po administered as cassette dose measured upto 24 hrs by LC-MS analysis
- Assay type: ADME, organism-based
- Set-up: time < 24 hrs, route po
- details: in vivo, dose 5-10 mg/kg
Could you give me the number in ng·h/mL? Just the number is fine.

# input Fill blank: measured AUC(0-t) at 24 h of the molecule Nc1ncnc2c1c(-c1ccc(Oc3ccccc3)cc1)nn2C1CCN(C2CCN(CC#Cc3ccc4c(c3)CN(C3CCC(=O)NC3=O)C4=O)CC2)CC1 (stereo not given) is ____.
# output 83

# input Fill blank: measured AUC(0-t) at 24 h of the molecule O=C1CCC(N2Cc3cc(CCCN4CCN(CC#CCOc5ccc(C(F)(F)F)cc5)CC4)ccc3C2=O)C(=O)N1 (stereo not given) is ____.
# output 236

# input Fill blank: measured AUC(0-t) at 24 h of the molecule Nc1ncnc2c1c(-c1ccc(Oc3ccccc3)cc1)nn2[C@@H]1CCCN(C(=O)[C@H]2CCCC[C@H]2C(=O)N2CCN(CC#Cc3ccc4c(c3)CN(C3CCC(=O)NC3=O)C4=O)CC2)C1 (stereo not given in full) is ____.
# output 58

# input Fill blank: measured AUC(0-t) at 24 h of the molecule O=C1CCC(N2Cc3ccc(C#CCN4CCN(CC#CCOc5ccc(C(F)(F)F)cc5)CC4)cc3C2=O)C(=O)N1 (stereo not given) is ____.
# output 7960

# input Fill blank: measured AUC(0-t) at 24 h of the molecule O=C1CCC(N2C(=O)c3cccc(NCCN4CCN(CC#CCOc5ccc(C(F)(F)F)cc5)CC4)c3C2=O)C(=O)N1 (stereo not given) is ____.
# output 328

# input Fill blank: measured AUC(0-t) at 24 h of the molecule O=C1CCC(N2C(=O)c3cccc(N4CCN(CC#CCN5CCN(c6ccc(C(F)(F)F)cc6)CC5)CC4)c3C2=O)C(=O)N1 (stereo not given) is ____.
# output 1720

# input Fill blank: measured AUC(0-t) at 24 h of the molecule O=C1CCC(N2C(=O)c3ccc(N4CCN(C5CN(CC#CCOc6ccc(C(F)(F)F)cc6)C5)CC4)cc3C2=O)C(=O)N1 (stereo not given) is ____.
# output 7080

# input Fill blank: measured AUC(0-t) at 24 h of the molecule Nc1ncnc2c1c(-c1ccc(Oc3ccccc3)cc1)nn2[C@@H]1CCCN(C(=O)[C@H]2CC[C@H](C(=O)N3CCN(CC#Cc4ccc5c(c4)CN(C4CCC(=O)NC4=O)C5=O)CC3)CC2)C1 (stereo not given in full) is ____.
# output 24

# input Fill blank: measured AUC(0-t) at 24 h of the molecule O=C1CCC(N2C(=O)c3cccc(N4CCN(C5CCN(CC#CCOc6ccc(C(F)(F)F)cc6)CC5)CC4)c3C2=O)C(=O)N1 (stereo not given) is ____.
# output 142

# input Fill blank: measured AUC(0-t) at 24 h of the molecule Nc1ncnc2c1c(-c1ccc(Oc3ccccc3)cc1)nn2[C@@H]1CCCN(C(=O)C2(C(=O)NCC#CCN3CCN(CC#Cc4ccc5c(c4)CN(C4CCC(=O)NC4=O)C5=O)CC3)CC2)C1 (stereo not given in full) is ____.
# output 145

----------
- assay: Half life in Sprague-Dawley rat at 5 to 10 mg/kg, po administered as cassette dose measured upto 24 hrs by LC-MS analysis
- Assay type: ADME, organism-based
- details: in vivo, dose 5-10 mg/kg
assay.metric: half-life (h)
Could you give me the number in h? Just the number is fine.

# input Fill blank: measured half-life of the compound Nc1ncnc2c1c(-c1ccc(Oc3ccccc3)cc1)nn2[C@@H]1CCCN(C(=O)[C@H]2CCCC[C@H]2C(=O)NCC#CCN2CCN(CC#Cc3ccc4c(c3)CN(C3CCC(=O)NC3=O)C4=O)CC2)C1 (some centres not stated) is ____.
# output 1.4

# input Fill blank: measured half-life of the compound O=C1CCC(N2Cc3c(OC4CN(CC#CCN5CCN(c6ccc(C(F)(F)F)cc6)CC5)C4)cccc3C2=O)C(=O)N1 (configuration not stated) is ____.
# output 5.7

# input Fill blank: measured half-life of the compound Nc1ncnc2c1c(-c1ccc(Oc3ccccc3)cc1)nn2[C@@H]1CCCN(C(=O)C2(C(=O)NCC#CCN3CCN(CC#Cc4ccc5c(c4)CN(C4CCC(=O)NC4=O)C5=O)CC3)CC2)C1 (some centres not stated) is ____.
# output 1.7

# input Fill blank: measured half-life of the compound Nc1ncnc2c1c(-c1ccc(Oc3ccccc3)cc1)nn2[C@@H]1CCCN(C(=O)[C@H]2CC[C@H](C(=O)NCC#CCN3CCN(CC#Cc4ccc5c(c4)CN(C4CCC(=O)NC4=O)C5=O)CC3)CC2)C1 (some centres not stated) is ____.
# output 1.5

# input Fill blank: measured half-life of the compound O=C1CCC(N2C(=O)c3cccc(N4CCN(CC5CCN(CC#CCOc6ccc(C(F)(F)F)cc6)CC5)CC4)c3C2=O)C(=O)N1 (configuration not stated) is ____.
# output 8.9

# input Fill blank: measured half-life of the compound O=C1CCC(N2C(=O)c3cccc(N4CCN(CC5CCN(CCCCOc6ccc(C(F)(F)F)cc6)CC5)CC4)c3C2=O)C(=O)N1 (configuration not stated) is ____.
# output 112

# input Fill blank: measured half-life of the compound O=C1CCC(N2Cc3cc(C#CCN4CCN(CC#CCOc5ccc(C(F)(F)F)cc5)CC4)ccc3C2=O)C(=O)N1 (configuration not stated) is ____.
# output 6

The origin of these recorded values is ChEMBL document CHEMBL5131541.
